Molecular target: T1, GIP receptor (human (printed as hGIPR), UniProt P48546 22-466)
T1 sequence (looked up): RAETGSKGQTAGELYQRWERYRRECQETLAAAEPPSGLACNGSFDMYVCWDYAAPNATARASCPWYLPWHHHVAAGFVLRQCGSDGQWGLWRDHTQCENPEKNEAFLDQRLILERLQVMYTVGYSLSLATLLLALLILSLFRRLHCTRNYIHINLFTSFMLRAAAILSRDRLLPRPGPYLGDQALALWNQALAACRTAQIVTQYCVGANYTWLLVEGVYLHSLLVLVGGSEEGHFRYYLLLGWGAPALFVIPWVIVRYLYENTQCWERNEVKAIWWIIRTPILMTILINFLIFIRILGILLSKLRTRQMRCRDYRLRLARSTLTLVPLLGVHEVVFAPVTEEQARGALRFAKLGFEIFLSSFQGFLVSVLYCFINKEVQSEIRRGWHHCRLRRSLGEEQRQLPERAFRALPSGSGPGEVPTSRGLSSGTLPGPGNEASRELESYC
Experiment: cell-based or functional assay
Starred links: 1 amine or outer side, 2 acyl side, 3 side chain; linkers in the order of their positions; H or OH if unused. Non-standard residues stand in square brackets, D forms with d. Groups on a side chain read outwards from the residue. No end group written: not given here. *: point of attachment. C20 diacid = O=C(O)CCCCCCCCCCCCCCCCCCC(=O)*; C18 diacid = O=C(O)CCCCCCCCCCCCCCCCC(=O)*; γGlu = O=C(O)[C@H](CCC(=O)[*:2])N[*:1]; AEEA = NCCOCCOCC(=O)O; Aib = CC(C)(N)C(=O)O
Group membership follows EC50 hGIPR 0.5% hP (CreLuc) per the scheme category 1: < 0.2 nM; category 2: ≥ 0.2 nM and < 0.4 nM; category 3: ≥ 0.4 nM

{"Binder": "Y[Aib]EGTFTSDYSI[Aib]LEKQAQ[Aib]AFVEWLIKGGPSYYASLRHYYNWLTRQRY-NH2 (not fully specified (residue 28); also: TFA salt) [Compound 203]", "Class Label": "category 3"}
{"Binder": "Y[Aib]EGTFTSDYSI[Aib]LEKQAQ[Aib]EFVQWLIK([γGlu-γGlu-γGlu-γGlu-C18 diacid])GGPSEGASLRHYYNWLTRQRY-NH2 (also: TFA salt) [Compound 202]", "Class Label": "category 2"}
{"Binder": "Y[Aib]EGTFTSDYSI[Aib]LEKQAQ[Aib]EFVQWLIK([Glu-Glu-Glu-Glu-Glu-Glu-C18 diacid])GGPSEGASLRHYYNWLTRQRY-NH2 (also: TFA salt) [Compound 179]", "Class Label": "category 2"}
{"Binder": "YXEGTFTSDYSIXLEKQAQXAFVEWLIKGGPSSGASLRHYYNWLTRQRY (Aib at 2, 13, 20; K28 side chain carries C20DA-gGlu-gGlu-gGlu-gGlu-gGlu-OEG-OEG; C-terminal amide) [Compound 229]", "Class Label": "category 2"}
{"Binder": "Y[Aib]EGTFTSDYSI[Aib]LEKQAQ[Aib]AFVEWLIK([AEEA-AEEA-γGlu-γGlu-γGlu-γGlu-C18 diacid])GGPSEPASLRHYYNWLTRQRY-NH2 (also: TFA salt) [Compound 256]", "Class Label": "category 2"}
{"Binder": "Y[Aib]EGTFTSDYSI[Aib]LEKQAQ[Aib]AFVQWLIK([AEEA-AEEA-Glu-Glu-Glu-Glu-C18 diacid])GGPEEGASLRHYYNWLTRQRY-NH2 (also: TFA salt) [Compound 177]", "Class Label": "category 2"}
{"Binder": "Y[Aib]EGTFTSDYSI[Aib]LEKQAQ[Aib]AFVEWLIKGGPSSGASLRHYYNW[dD]TRQRY-NH2 (not fully specified (residue 28); also: TFA salt) [Compound 204]", "Class Label": "category 2"}
{"Binder": "Y[Aib]EGTFTSDYSI[Aib]LEKQAE[Aib]AFVEWLIK([AEEA-AEEA-γGlu-γGlu-γGlu-γGlu-C18 diacid])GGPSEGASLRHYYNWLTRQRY-NH2 (also: TFA salt) [Compound 251]", "Class Label": "category 1"}
{"Binder": "YXEGTFTSDYSIXLEKQAQXAFVEWLIKGGPSSGASLRHYYNXLTRQRY (Aib at 2, 13, 20, 43; K28 side chain carries C20DA-gGlu-gGlu-gGlu-gGlu-gGlu-gGlu-eLys; C-terminal amide) [Compound 218]", "Class Label": "category 2"}
{"Binder": "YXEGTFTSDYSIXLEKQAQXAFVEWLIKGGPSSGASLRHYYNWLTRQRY (Aib at 2, 13, 20; K28 side chain carries C20DA-gGlu-gGlu-gGlu-gGlu-gGlu; C-terminal amide) [Compound 238]", "Class Label": "category 3"}
{"Binder": "YXEGTFTSDYSIXLEKQAQXAFVEWLIKGGPSEGVSLRHYYNWLTRQRY (Aib at 2, 13, 20; K28 side chain carries C20DA-gGlu-gGlu-gGlu-gGlu-gGlu-gGlu-eLys; C-terminal amide) [Compound 241]", "Class Label": "category 3"}
{"Binder": "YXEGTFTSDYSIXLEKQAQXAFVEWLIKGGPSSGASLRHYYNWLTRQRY (Aib at 2, 13, 20; K28 side chain carries C20DA-gGlu-gGlu-gGlu-gGlu-gGlu-gGlu-eLys; C-terminal amide) [Compound 221]", "Class Label": "category 1"}
{"Binder": "YXEGTFTSDYSIXLEKQAQXAFVEWLIKGGPSSGASLRHYYXWLTRQRY (Aib at 2, 13, 20, 42; K28 side chain carries C20DA-gGlu-gGlu-gGlu-gGlu-gGlu-gGlu-eLys; C-terminal amide) [Compound 213]", "Class Label": "category 2"}
{"Binder": "YXEGTFTSDYSIXLEKQAQXAFVEWLIKGGPSEGESLRHYYNWLTRQRY (Aib at 2, 13, 20; K28 side chain carries C20DA-gGlu-gGlu-gGlu-gGlu-gGlu-gGlu-eLys; C-terminal amide) [Compound 237]", "Class Label": "category 1"}
{"Binder": "Y[Aib]EGTFTSDYSI[Aib]LEKQAE[Aib]AFVQWLIK([AEEA-AEEA-γGlu-γGlu-γGlu-γGlu-C20 diacid])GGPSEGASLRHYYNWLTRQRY-NH2 (also: TFA salt) [Compound 219]", "Class Label": "category 3"}
{"Binder": "YXEGTFTSDYSIXLELQAQXAFVEWLIKGGPSSGASLRHYYNWLTRQRY (Aib at 2, 13, 20; K28 side chain carries C20DA-gGlu-gGlu-gGlu-gGlu-gGlu-gGlu-eLys; C-terminal amide) [Compound 209]", "Class Label": "category 3"}
